- TARGET ENTITY: Pot1pN (first DNA-binding OB fold of S. pombe Pot1) (Schizosaccharomyces pombe, UniProt O13988)
- Sequence (O13988 1-187): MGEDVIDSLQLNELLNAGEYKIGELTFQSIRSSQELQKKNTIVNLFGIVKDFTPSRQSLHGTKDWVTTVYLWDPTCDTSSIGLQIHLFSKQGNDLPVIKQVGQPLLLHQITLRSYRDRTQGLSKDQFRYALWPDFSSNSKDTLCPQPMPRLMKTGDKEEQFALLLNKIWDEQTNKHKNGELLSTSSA
- PROTOCOL NOTES: ITC of ligand binding to Pot1pN
- CONDITION: KD, ITC, 20 °C, one-site binding model
ASSAY READOUT: Kd

Q. Bench note: what Kd did `Nc1c(/N=N/c2ccc(-c3ccc(/N=N/c4cc(S(=O)(=O)O)c5ccccc5c4N)cc3)cc2)cc(S(=O)(=O)O)c2ccccc12` show?
A. 0.7 µM

###

- TARGET ENTITY: UniProtKB O13988
ASSAY READOUT: pIC50
Entry type: numeric. Quantity: pIC50, the -log10 of concentration in molar units.

Q. Bench note: what pIC50 did `Nc1c(/N=N/c2ccc(-c3ccc(/N=N/c4cc(S(=O)(=O)O)c5ccccc5c4N)cc3)cc2)cc(S(=O)(=O)O)c2ccccc12` show?
A. 3.95
